target: T1, 017-mut5 peptide (…)/HLA-A*02:01 complex on T2 cells (human); experiment: flow cytometry, phage on peptide-loaded T2 cells
T1 construct: Alanine mutant at position 5

binder	MFI
EXT017-32 scFv phage clone (scFv, also called EXT017-32 phage; phage clone #32) scFv: QSVLTQPPSVSVAPGKTARITCGGNNIGSKSVHWYQQKPGQAPVLVIYYDSDRPSGIPERFSGSNSGNTATLTISRVEAGDEADYYCQVWDSSSDHYVFGTGTKVTVLGSRGGGGSGGGGSGGGGSLEMAEVQLVESGGGVVQPGRSLRLSCAASGFTFNNHAMHWVRQAPGKGLEWVAVISFDGDDKFYADSVKGRFTISRDNSRNTLFLQMNNLRPEDTAVYYCSRDPYHFASGSYSYFDYWGQGTLVTVSSTSGQAGQHHHHHHGAYPYDVPDYAS	2710
